Cited source: ChEMBL document CHEMBL1138845

- Test system: Human immunodeficiency virus 1
- assay-method-text: Inhibitory concentration against wild type human immunodeficiency virus type 1 was determined by recombinant virus assay
- Type: functional, organism-based
pIC50: −log10 of the molar value.
Decision: pIC50 compared against 7; not below it gives T, below it gives F.

Known results for compounds:
entry-smiles | label-value
CCCc1c(O)nc2ccc(Cl)cc2c1OCC1CCCCC1 | F
CCCc1c(O)nc2ccc(OC)cc2c1OC1CCCC1 | F
CCOc1c(O)nc2ccc(F)cc2c1OCC1CCC1 | F
CCCc1c(O)nc2ccc(Cl)cc2c1OCC1CCC1 | T
CC(C)c1c(O)nc2ccc(Cl)cc2c1OC#CC1CC1 | T
CCOc1c(O)nc2ccc(Cl)cc2c1OCC1CCC1 | F

Turning now to a further record.
Asked: Exam item: decide whether the reported pIC50 for `CC(C)c1c(O)nc2ccc(Cl)cc2c1OCC1CCC1` is at least 7.
Given back: T

----------
- Tested on: HeLa
- assay-method-text: Inhibitory concentration against human immunodeficiency virus type 1 (with Y188C resistant mutation) was determined in HeLa-CD4 MAGI assay
- Assay type: functional, cell-based
pIC50: −log10 of the molar value.
Decision: pIC50 compared against 7; not below it gives yes, below it gives no.

Known results for molecules:
molecule | label-value
CC(C)Cc1c(O)nc2ccc(Cl)cc2c1OC1CCCC1 | yes
CCC(C)c1c(O)nc2ccc(Cl)cc2c1OC1CCCC1 (configuration not stated) | no
CCCc1c(O)nc2cc(OC)ccc2c1OCC1CCC1 | no
CCCc1c(O)nc2ccc(Cl)cc2c1OC1CCCC1 | yes
CCCc1c(O)nc2ccc(F)cc2c1OC#CC1CC1 | no

Turning now to a further record.
Asked: Exam item: decide whether the reported pIC50 for `CCCc1c(O)nc2ccc(C#N)cc2c1OC1CCCC1` is at least 7.
Given back: yes

----------
- Tested on: MT4
- assay-method-text: Inhibitory concentration against wild type human immunodeficiency virus type 1 was determined by MT-4 assay
- Type: functional, cell-based
pIC50: −log10 of the molar value.
Decision: pIC50 compared against 7; not below it gives met, below it gives not met.

Known results for compounds:
compound | label-value
CC(C)c1c(O)nc2ccc(Cl)cc2c1OC#CC1CC1 | met
CCCc1c(O)nc2ccc(Cl)cc2c1OC1CCC1 | not met
CCC(C)c1c(O)nc2ccc(Cl)cc2c1OC1CCCC1 (configuration not stated) | met
CCCc1c(O)nc2ccc(Cl)cc2c1OCC1CCCCC1 | not met

Turning now to a further record.
Asked: Exam item: decide whether the reported pIC50 for `CCOc1c(O)nc2ccc(F)cc2c1OCC1CCC1` is at least 7.
Given back: not met

----------
Assignment: determine reported pIC50 for the given compounds.
- Tested on: HeLa
- assay-method-text: Inhibitory concentration against human immunodeficiency virus type 1 (with K103N resistant mutation) was determined in HeLa-CD4 MAGI assay
- Assay type: functional, cell-based
pIC50: −log10 of the molar value.

compound | experimental-system | pIC50
CCC(C)C#COc1c(C(C)C)c(O)nc2ccc(F)cc12 (stereo unspecified) | HeLa | 6.27

# batch size: 2; output pIC50 per entry
1. O=C1Nc2ccc(Cl)cc2[C@@](C#CC2CC2)(C(F)(F)F)O1 [EFAVIRENZ]
2. CCCc1c(O)nc2ccc(OC(F)(F)F)cc2c1OC1CCCC1

Given back:
[7.64, "< 5.70"]

# batch size: 3; output pIC50 per entry
1. CCCc1c(O)nc2ccc(Cl)cc2c1OCC1CCCCC1
2. CCOc1c(O)nc2ccc(F)cc2c1OCC1CCC1
3. Cc1c(O)nc2ccc(F)cc2c1OCC1CCC1

Given back:
< 5.70
< 5.70
< 5.70

----------
- Tested on: MT4
- assay-method-text: Inhibitory concentration against wild type human immunodeficiency virus type 1 was determined by MT-4 assay
- Format: functional, cell-based
Assignment: determine reported pIC50 for the given compounds.
One number for each entry, as −log10 of the molar value.

Use these answered entries as a reference point.
entry-smiles | experimental-system | pIC50
CC(C)c1c(OC2CCCCC2)c2cc(Cl)ccc2[nH]c1=O | MT4 | 7.64
CCCc1c(O)nc2ccc(Cl)cc2c1OCC1CCC1 | MT4 | 7.14
CCc1c(O)nc2ccc(F)cc2c1OCC1CCC1 | MT4 | 7.41

Asked: Quick one: pIC50 for `CCCc1c(O)nc2ccccc2c1OC1CCCC1` ?
Given back: 6.42

----------
- Test system: Human immunodeficiency virus 1
- assay-method-text: Inhibitory concentration against wild type human immunodeficiency virus type 1 was determined by recombinant virus assay
- Type: functional, organism-based
measure-name: pIC50
One number for each entry, as −log10 of the molar value.

Use these answered entries as a reference point.
entry-smiles | pIC50
CCCc1c(O)nc2ccc(Cl)cc2c1OC1CCCC1 | 7.22
CCCc1c(O)nc2ccc(F)cc2c1OC#CC1CC1 | 7.18
CCc1c(O)nc2ccc(F)cc2c1OC#CC1CC1 | 7.60
CCCc1c(O)nc2ccc(Cl)cc2c1OC1CCC1 | 6.52
CC(C)c1c(OC#CC2CC2)c2cc(F)ccc2[nH]c1=O | 8.00

Attention now shifts to the item below.
Asked: What is its pIC50 for Human immunodeficiency virus 1? Entry: `CC(C)c1c(O)nc2ccc(F)cc2c1OCC1CCC1`
Given back: 7.31

----------
- System: HeLa
- assay-method-text: Inhibitory concentration against human immunodeficiency virus type 1 (with Y188C resistant mutation) was determined in HeLa-CD4 MAGI assay
- Assay type: functional, cell-based
measure-name: IC50

entry-smiles | IC50
CCOc1c(O)nc2ccc(F)cc2c1OCC1CCC1 | 360 nM
CC(C)c1c(O)nc2ccc(Cl)cc2c1OC#CC1CC1 | 18 nM
CCCc1c(O)nc2ccc(Cl)cc2c1OC1CCC1 | 290 nM

# batch size: 3; output IC50 per entry
1. CC(C)c1c(OC#CC2CC2)c2cc(F)ccc2[nH]c1=O
2. CCCc1c(O)nc2ccc(F)cc2c1OCC1CCC1
3. CCCc1c(O)nc2ccc(Cl)cc2c1OC#CC1CC1

Given back:
1. 23 nM
2. 60 nM
3. 70 nM

----------
- System: HeLa
- assay-method-text: Inhibitory concentration against human immunodeficiency virus type 1 (with Y188C resistant mutation) was determined in HeLa-CD4 MAGI assay
- Type: functional, cell-based
pIC50: −log10 of the molar value.
Decision: pIC50 compared against 7; not below it gives yes, below it gives no.

Known results for compounds:
entry-smiles | label-value
CC(C)c1c(O)nc2ccc(F)cc2c1OCC1CCC1 | yes
CC(C)c1c(OC2CCCCC2)c2cc(Cl)ccc2[nH]c1=O | yes
CCCc1c(O)nc2ccc(F)cc2c1OC1CCCC1 | yes
Cc1c(O)nc2ccc(F)cc2c1OCC1CCC1 | no
CC(C)c1c(O)nc2ccc(Cl)cc2c1OCC1CCC1 | yes
CCCc1c(O)nc2ccccc2c1OC1CCCC1 | no

Turning now to a further record.
Asked: Exam item: decide whether the reported pIC50 for `CCc1c(O)nc2ccc(Cl)cc2c1OC1CCCC1` is at least 7.
Given back: yes

----------
- System: HeLa
- assay-method-text: Inhibitory concentration against human immunodeficiency virus type 1 (with Y188C resistant mutation) was determined in HeLa-CD4 MAGI assay
- Assay type: functional, cell-based
measure-name: pIC50
One number for each entry, as −log10 of the molar value.

entry-smiles | numeric-result
CCCc1c(O)nc2ccc(Cl)cc2c1OCC1CC1 | 7.05
CCCc1c(O)nc2ccc(OC)cc2c1OC1CCCC1 | 6.80
CCCc1c(O)nc2ccc(Br)cc2c1OC1CCCC1 | 8.05
CCCc1c(O)nc2ccc(Cl)cc2c1OCC1CCC1 | 7.80

Attention now shifts to the item below.
Asked: Quick one: pIC50 for `CCc1c(O)nc2ccc(F)cc2c1OCC1CCC1` ?
Given back: 6.89
